# Assay name: Toxicity in human RBC assessed as hemolysis at 1 ug/ml after 2 hrs
# Format: cell-based, Erythrocyte
# Recorded conditions: red blood cells (RBC), read-out: Activity
Reported metric: hemolysis at 2 h, 1 ug/ml (%)
Write down the numeric answer in % and omit the unit.

Molecule: C=C[C@]1(C)CC=C2C(CC[C@@H]3[C@](C)(CO)CCC[C@@]23C)C1 (some centres not stated)
hemolysis at 2 h, 1 ug/ml [%]: 0.08

Then there is this molecule:
Lab book: hemolysis at 2 h, 1 ug/ml of C[C@@H]1[C@H](O)[C@@H](C)/C=C/C=C/C=C/C=C/C=C/C=C/C=C/[C@H](O[C@@H]2O[C@H](C)[C@@H](O)[C@H](N)[C@@H]2O)C[C@@H]2O[C@](O)(C[C@@H](O)C[C@@H](O)[C@H](O)CC[C@@H](O)C[C@@H](O)CC(=O)O[C@H]1C)C[C@H](O)[C@H]2C(=O)O noted as 9.7

====

# Tested on: Staphylococcus aureus
# Assay name: Antimicrobial activity against methicillin-susceptible Staphylococcus aureus 375 after 18 hrs by microbroth dilution method
# Assay type: functional
Entries and their MIC values follow.
Write down the numeric answer in µg/mL and omit the unit.

See these solved cases before continuing.
Compound: C=C[C@]1(C)CCC2=C(CC[C@@H]3[C@](C)(CO)CCC[C@@]23C)C1
Experimental system: Staphylococcus aureus
Reported metric: MIC
Quantitative readout: 32

Compound: CC1(C)S[C@@H]2[C@H](NC(=O)Cc3ccccc3)C(=O)N2[C@H]1C(=O)O [PENICILLIN G]
Experimental system: Staphylococcus aureus
Reported metric: MIC
Quantitative readout: 0.03

Then there is this compound:
Lab book: MIC of CC(C)c1ccc2c(c1)CC[C@H]1[C@](C)(C(=O)O)CCC[C@]21C [DEHYDROABIETIC ACID] noted as 16

====

Entries and their hemolysis at 2 h, 16 ug/ml values follow.
# Assay name: Toxicity in human RBC assessed as hemolysis at 16 ug/ml after 2 hrs
# Type: cell-based, Erythrocyte
# Recorded conditions: red blood cells (RBC), read-out: Activity
Write down the numeric answer in % and omit the unit.

Compound: C=C[C@]1(C)CC=C2C(CC[C@@H]3[C@](C)(CO)CCC[C@@]23C)C1 (some centres not stated)
Quantitative readout: 14.8

Then there is this compound:
Lab book: hemolysis at 2 h, 16 ug/ml of C[C@@H]1[C@H](O)[C@@H](C)/C=C/C=C/C=C/C=C/C=C/C=C/C=C/[C@H](O[C@@H]2O[C@H](C)[C@@H](O)[C@H](N)[C@@H]2O)C[C@@H]2O[C@](O)(C[C@@H](O)C[C@@H](O)[C@H](O)CC[C@@H](O)C[C@@H](O)CC(=O)O[C@H]1C)C[C@H](O)[C@H]2C(=O)O noted as 118

====

# Assay name: Toxicity in human RBC assessed as hemolysis at 32 ug/ml after 2 hrs
# Assay type: cell-based, Erythrocyte
# Recorded conditions: red blood cells (RBC), read-out: Activity
Reported metric: hemolysis at 2 h, 32 ug/ml (%)
Write down the numeric answer in % and omit the unit.

Lab book: hemolysis at 2 h, 32 ug/ml of C=C[C@]1(C)CC=C2C(CC[C@@H]3[C@](C)(CO)CCC[C@@]23C)C1 (stereo partly specified) noted as 71.7

====

# Tested on: Bacillus subtilis
# Assay name: Antimicrobial activity against Bacillus subtilis 327 after 18 hrs by microbroth dilution method
# Format: functional
Reported metric: MIC
Record the result as number plus unit.

See these solved cases before continuing.
Compound: C=C[C@]1(C)CC=C2C(CC[C@@H]3[C@](C)(CO)CCC[C@@]23C)C1 (stereo partly drawn)
MIC: 4 µg/mL

Compound: C[C@H]1[C@H](C)CC[C@]2(C(=O)O)CC[C@]3(C)C(=CC[C@@H]4[C@@]5(C)CC[C@@H](O)C(C)(C)[C@@H]5CC[C@]43C)[C@H]12
MIC: 64 µg/mL

Compound: C=C[C@]1(C)CCC2=C(CC[C@@H]3[C@](C)(CO)CCC[C@@]23C)C1
MIC: 32 µg/mL

Compound: CC(C)c1ccc2c(c1)CC[C@H]1[C@](C)(CO)CCC[C@]21C
MIC: 8 µg/mL

Compound: CC1(C)CC[C@]2(C(=O)O)CC[C@]3(C)C(=CC[C@@H]4[C@@]5(C)CC[C@@H](O)C(C)(C)[C@@H]5CC[C@]43C)[C@@H]2C1
MIC: 64 µg/mL

Compound: CC1(C)S[C@@H]2[C@H](NC(=O)Cc3ccccc3)C(=O)N2[C@H]1C(=O)O
MIC: 0.03 µg/mL

Lab book: MIC of C=C[C@]1(C)CC=C2C(CC[C@@H]3[C@](C)(C(=O)O)CCC[C@@]23C)C1 (stereo partly drawn) noted as 32 µg/mL

Lab book: MIC of CC(C)c1ccc2c(c1)CC[C@H]1[C@](C)(C(=O)O)CCC[C@]21C [DEHYDROABIETIC ACID] noted as 32 µg/mL

====

Entries and their MIC values follow.
# System: Staphylococcus aureus
# Assay name: Antimicrobial activity against methicillin-susceptible Staphylococcus aureus 375 after 18 hrs by microbroth dilution method
# Assay type: functional
Write down the numeric answer in µg/mL and omit the unit.

Lab book: MIC of C=C[C@]1(C)CC=C2C(CC[C@@H]3[C@](C)(CO)CCC[C@@]23C)C1 (some centres undefined) noted as 2

Lab book: MIC of C=C[C@]1(C)CC=C2C(CC[C@@H]3[C@](C)(C(=O)O)CCC[C@@]23C)C1 (some centres undefined) noted as 16

Lab book: MIC of CC(C)c1ccc2c(c1)CC[C@H]1[C@](C)(CO)CCC[C@]21C noted as 4

====

# Assay name: Toxicity in human RBC assessed as hemolysis at 64 ug/ml after 2 hrs
# Assay type: cell-based, Erythrocyte
# Recorded conditions: red blood cells (RBC), read-out: Activity
Reported metric: hemolysis at 2 h, 64 ug/ml (%)
Write down the numeric answer in % and omit the unit.

Lab book: hemolysis at 2 h, 64 ug/ml of C=C[C@]1(C)CC=C2C(CC[C@@H]3[C@](C)(CO)CCC[C@@]23C)C1 (stereo partly specified) noted as 80.2

====

# Assay name: Toxicity in human RBC assessed as hemolysis at 2 ug/ml after 2 hrs
# Type: cell-based, Erythrocyte
# Recorded conditions: red blood cells (RBC), read-out: Activity
Reported metric: hemolysis at 2 h, 2 ug/ml (%)
Write down the numeric answer in % and omit the unit.

Compound: C=C[C@]1(C)CC=C2C(CC[C@@H]3[C@](C)(CO)CCC[C@@]23C)C1 (some centres not stated)
Quantitative readout: 0.45

Lab book: hemolysis at 2 h, 2 ug/ml of C[C@@H]1[C@H](O)[C@@H](C)/C=C/C=C/C=C/C=C/C=C/C=C/C=C/[C@H](O[C@@H]2O[C@H](C)[C@@H](O)[C@H](N)[C@@H]2O)C[C@@H]2O[C@](O)(C[C@@H](O)C[C@@H](O)[C@H](O)CC[C@@H](O)C[C@@H](O)CC(=O)O[C@H]1C)C[C@H](O)[C@H]2C(=O)O [AMPHOTERICIN B] noted as 27.5

====

# Assay name: Toxicity in human RBC assessed as hemolysis at 4 ug/ml after 2 hrs
# Format: cell-based, Erythrocyte
# Recorded conditions: red blood cells (RBC), read-out: Activity
Reported metric: hemolysis at 2 h, 4 ug/ml (%)
Write down the numeric answer in % and omit the unit.

Compound: C=C[C@]1(C)CC=C2C(CC[C@@H]3[C@](C)(CO)CCC[C@@]23C)C1 (some centres not stated)
Quantitative readout: 0.3

Then there is this compound:
Lab book: hemolysis at 2 h, 4 ug/ml of C[C@@H]1[C@H](O)[C@@H](C)/C=C/C=C/C=C/C=C/C=C/C=C/C=C/[C@H](O[C@@H]2O[C@H](C)[C@@H](O)[C@H](N)[C@@H]2O)C[C@@H]2O[C@](O)(C[C@@H](O)C[C@@H](O)[C@H](O)CC[C@@H](O)C[C@@H](O)CC(=O)O[C@H]1C)C[C@H](O)[C@H]2C(=O)O noted as 74.6
